- System: Bacteroides dorei
- test: growth AUC relative to DMSO control (median of replicates) (fraction); higher = more growth (less inhibition), active = hit call of the paper
- test_parameters: 20 µM; 24 h
Quick rule: growth AUC of at least 1 means fulfilled, below that means not fulfilled.

Check out these entries, answers already filled in.
compound	classification
CC(C)N(C(=O)SCC(Cl)=C(Cl)Cl)C(C)C	not fulfilled
O=S1(=O)OCC2C(CO1)C1(Cl)C(Cl)=C(Cl)C2(Cl)C1(Cl)Cl (stereo unspecified)	not fulfilled
CNC(=O)/C(=N\OC)c1ccccc1Oc1ccccc1	not fulfilled
Nc1cc(Cl)ccc1Cl	fulfilled

Now look at this entry.
Reported growth AUC reaches at least 1 for C[C@H]1[C@H](c2ccc(Cl)cc2)SC(=O)N1C(=O)NC1CCCCC1 ?
not fulfilled

###

- System: Bacteroides stercoris
- test: growth AUC relative to DMSO control (median of replicates) (fraction); higher = more growth (less inhibition), active = hit call of the paper
- test_parameters: 20 µM; 24 h
Think of 1 as a floor: if growth AUC stands on it or above, it is condition met; beneath it, condition not met.

Record excerpt, results attached:
molecule	measurement_target	classification
CNC(=O)ON=C(CS(C)=O)C(C)(C)C (centres undefined)	Bacteroides stercoris	condition not met
CCNc1nc(NC(C)C)nc(OC)n1	Bacteroides stercoris	condition met
CO/N=C(/C1=NOCCO1)c1ccccc1Oc1ncnc(Oc2ccccc2Cl)c1F	Bacteroides stercoris	condition not met
O=C1C(Cl)=C(Cl)C(=O)c2ccccc21	Bacteroides stercoris	condition not met
CCSCCSP(=S)(OC)OC	Bacteroides stercoris	condition met

Does COCC(C)N(C(=O)CCl)c1c(C)csc1C (centres undefined) have a reported growth AUC of at least 1?
condition met

Confirm if growth AUC reported for the molecule CC1(C)CN=C(NN=C(/C=C/c2ccc(C(F)(F)F)cc2)/C=C/c2ccc(C(F)(F)F)cc2)NC1 is 1 or above.
condition not met

Could you please find out whether CN(C)C(CSS(=O)(=O)[O-])CSS(=O)(=O)O.[Na+] has growth AUC that meets 1 or exceeds it?
condition met

Could you please find out whether CCO/N=C(\CC)C1=C(O)CC(c2c(C)cc(C)cc2C)CC1=O (centres undefined) has growth AUC that meets 1 or exceeds it?
condition not met

Is reported growth AUC greater than or equal to 1 here: CCOP(=S)(OCC)SCCS(=O)(=O)CC
condition met

Reported growth AUC reaches at least 1 for CCOP(=S)(OCC)Oc1nc(Cl)c(Cl)cc1Cl ?
condition met

For this molecule, is measured growth AUC 1 or higher? CC1(C)[C@H](C=C(Cl)Cl)[C@H]1C(=O)OCc1c(F)c(F)cc(F)c1F
condition met

Hi team, for CCS(=O)(=O)c1cccnc1S(=O)(=O)NC(=O)Nc1nc(OC)cc(OC)n1 , is the recorded growth AUC at or above 1?
condition not met

I'd appreciate it if you could say whether Clc1nc(Cl)nc(Nc2ccccc2Cl)n1 has growth AUC at least equal to 1.
condition met

Is growth AUC at least 1? Consider COC(=O)c1sccc1S(=O)(=O)NC(=O)Nc1nc(C)nc(OC)n1
condition not met

###

- System: Akkermansia muciniphila
- test: growth AUC relative to DMSO control (median of replicates) (fraction); higher = more growth (less inhibition), active = hit call of the paper
- test_parameters: 20 µM; 24 h
Recorded growth AUC by entry
Respond with the number and no other words.

compound	observed_measurement
CCS(=O)(=O)CCSP(=O)(OC)OC	0.829

Briefly, growth AUC measured for O=S(=O)(Oc1ccc(Cl)cc1)c1ccc(Cl)cc1 : 1.09

Query CN(C)S(=O)(=O)N(SC(F)(Cl)Cl)c1ccccc1 yields growth AUC of 1.13

growth AUC measured on Cc1ccccc1CO[C@@H]1C[C@@]2(C(C)C)CC[C@]1(C)O2 (mixture of isomers) = 1.08

Recorded result, CNc1nc(C)c(C)c(OC(=O)N(C)C)n1 , growth AUC: 0.975

Cc1c(COC(=O)[C@@H]2[C@H](/C=C(\Cl)C(F)(F)F)C2(C)C)cccc1-c1ccccc1 yielded growth AUC of 0.924

// COP(=O)(OC)OC=C(Cl)Cl : growth AUC value = 1.04

The reported value for CCS(=O)(=O)Oc1ccc2c(c1)C(C)(C)CO2 in terms of growth AUC is 0.972

Notebook: CCOP(=S)(OCC)SCSCC , growth AUC read as 1.1

In plain terms, CC(C)[C@@H](Nc1ccc(C(F)(F)F)cc1Cl)C(=O)OC(C#N)c1cccc(Oc2ccccc2)c1 (stereo partly specified) has a documented growth AUC of 1.09

growth AUC for Fc1ccc(Oc2ccnc3cc(Cl)cc(Cl)c23)cc1 is 0.94
